experimentalSystem: T1, murine IL-21R extracellular domain His-Flag fusion protein (murine, UniProt Q9JHX3 20-237)
T1 construct: Biotinylated in the ELISAs; also called mIL-21R-H/F; murine IL-21R-H/F
experimentSummary: SPR, Ab captured on anti-human IgG
property: kon (M⁻¹ s⁻¹)

binder	property	unitString	recordedMeasurement
AbS (antibody, V domains shown, CDR3 graft, residue limits derived as for m29; also called VHP/VL6; VHPTM/VL6) VH: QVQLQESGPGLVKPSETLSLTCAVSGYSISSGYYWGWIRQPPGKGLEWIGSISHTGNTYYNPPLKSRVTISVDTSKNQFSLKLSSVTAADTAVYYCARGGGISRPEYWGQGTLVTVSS VL: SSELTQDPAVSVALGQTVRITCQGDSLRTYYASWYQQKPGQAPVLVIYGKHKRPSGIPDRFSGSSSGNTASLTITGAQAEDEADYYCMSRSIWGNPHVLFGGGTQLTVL	kon	M⁻¹ s⁻¹	199000

Where these numbers come from: patent US20120276102A1
